The following compounds are shown together with reported IC50 values.
- subject of test: Aurora A kinase (Homo sapiens, UniProt O14965)
- Construct: purchased
- Sequence (O14965 1-403): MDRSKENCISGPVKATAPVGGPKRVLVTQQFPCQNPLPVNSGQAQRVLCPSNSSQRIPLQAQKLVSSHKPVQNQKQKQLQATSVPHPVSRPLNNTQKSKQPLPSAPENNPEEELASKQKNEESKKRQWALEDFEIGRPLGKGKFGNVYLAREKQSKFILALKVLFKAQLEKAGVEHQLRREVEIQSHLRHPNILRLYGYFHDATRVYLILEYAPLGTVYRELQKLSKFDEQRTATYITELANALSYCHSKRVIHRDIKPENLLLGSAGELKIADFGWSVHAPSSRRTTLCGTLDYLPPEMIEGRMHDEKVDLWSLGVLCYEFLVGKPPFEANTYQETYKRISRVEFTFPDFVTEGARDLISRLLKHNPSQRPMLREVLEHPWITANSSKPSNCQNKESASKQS
- protocol description: Aurora-A (human) kinase assay (Kemptide substrate)
- Type: biochemical
- test parameters: pIC50 is -log(IC50, M); 15 μM ATP; read-out: Kinase Inhibition pIC50 Aurora A kinase (converted)
endpoint name: IC50 (nM)

compound="Cc1cc(Nc2nccc(-c3sc(-c4cccnc4)nc3C)n2)ccc1N1CCCCC1 [Compound 208]" endpoint_name=IC50 endpoint_value=1000
compound="CNc1nc(C)c(-c2ccnc(Nc3cccc(S(=O)(=O)NCCOC)c3)n2)s1 [Compound 54]" endpoint_name=IC50 endpoint_value=25.1
compound="Cc1nc(C)c(-c2ccnc(Nc3ccc(N4CCN(CC(=O)NC(C)C)CC4)cc3)n2)s1 [Compound 190]" endpoint_name=IC50 endpoint_value=63.1
compound="CC(=O)NCc1cccc(Nc2nccc(-c3sc(-c4ccc(C)nc4)nc3C)n2)c1 [Compound 108]" endpoint_name=IC50 endpoint_value=2510
compound="COc1cc(Nc2nccc(-c3sc(CO)nc3C)n2)ccc1N1CCOCC1 [Compound 200]" endpoint_name=IC50 endpoint_value=39.8
compound="CCc1cc(-c2nc(C)c(-c3ccnc(Nc4cccc(CNC(C)=O)c4)n3)s2)ccn1 [Compound 105]" endpoint_name=IC50 endpoint_value=316
compound="CCNc1nc(C)c(-c2ccnc(Nc3ccc(OC)cc3C)n2)s1 [Compound 111]" endpoint_name=IC50 endpoint_value=3160
compound="Cc1nc(C)c(-c2ccnc(Nc3ccc(N4CCOCC4)cc3C)n2)s1 [Compound 139]" endpoint_name=IC50 endpoint_value=1580
compound="Cc1nc(C)c(-c2ccnc(Nc3cccc(CNS(C)(=O)=O)c3)n2)s1 [Compound 49]" endpoint_name=IC50 endpoint_value=5.01
compound="Cc1nc(C)c(-c2ccnc(Nc3ccc(N4CCOCC4)c(C(N)=O)c3)n2)s1 [Compound 210]" endpoint_name=IC50 endpoint_value=251
compound="Cc1nc(CS(=O)(=O)c2cccs2)sc1-c1ccnc(Nc2ccc(N3CCOCC3)cc2)n1 [Compound 138]" endpoint_name=IC50 endpoint_value=50.1
compound="CC(=O)N1CCN(c2ccc(Nc3nccc(-c4sc(NCCc5ccccc5)nc4C)n3)cc2)CC1 [Compound 163]" endpoint_name=IC50 endpoint_value=63.1
compound="CCNc1nc(C)c(-c2ccnc(Nc3ccc(OC)c(C)c3)n2)s1 [Compound 187]" endpoint_name=IC50 endpoint_value=100
compound="COc1cc(Nc2nccc(-c3sc(CO)nc3C)n2)ccc1N1CCCCC1 [Compound 216]" endpoint_name=IC50 endpoint_value=63.1
compound="CCNc1nc(C)c(-c2ccnc(Nc3ccc(S(=O)(=O)NCCO)cc3)n2)s1 [Compound 65]" endpoint_name=IC50 endpoint_value=251
compound="Cc1ccc(Nc2nccc(-c3sc(N)nc3C)n2)cc1S(=O)(=O)N1CCOCC1 [Compound 38]" endpoint_name=IC50 endpoint_value=501
compound="COc1cc(Nc2nccc(-c3sc(N)nc3C)n2)cc(OC)c1 [Compound 161]" endpoint_name=IC50 endpoint_value=100

====

- subject of test: CDK9/cyclin T1 (Homo sapiens)
- Sequence (P50750 whole entry): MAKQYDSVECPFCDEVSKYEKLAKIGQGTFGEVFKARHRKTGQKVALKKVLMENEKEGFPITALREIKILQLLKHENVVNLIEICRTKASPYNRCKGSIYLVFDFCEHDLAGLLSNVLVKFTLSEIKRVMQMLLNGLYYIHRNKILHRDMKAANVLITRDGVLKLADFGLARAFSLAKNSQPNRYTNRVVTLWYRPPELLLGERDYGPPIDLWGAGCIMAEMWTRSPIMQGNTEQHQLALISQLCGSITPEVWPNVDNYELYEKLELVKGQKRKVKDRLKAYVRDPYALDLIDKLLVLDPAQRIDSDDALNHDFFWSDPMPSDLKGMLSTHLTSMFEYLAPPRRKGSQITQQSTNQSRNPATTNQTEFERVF
- Sequence (O60563 whole entry partner): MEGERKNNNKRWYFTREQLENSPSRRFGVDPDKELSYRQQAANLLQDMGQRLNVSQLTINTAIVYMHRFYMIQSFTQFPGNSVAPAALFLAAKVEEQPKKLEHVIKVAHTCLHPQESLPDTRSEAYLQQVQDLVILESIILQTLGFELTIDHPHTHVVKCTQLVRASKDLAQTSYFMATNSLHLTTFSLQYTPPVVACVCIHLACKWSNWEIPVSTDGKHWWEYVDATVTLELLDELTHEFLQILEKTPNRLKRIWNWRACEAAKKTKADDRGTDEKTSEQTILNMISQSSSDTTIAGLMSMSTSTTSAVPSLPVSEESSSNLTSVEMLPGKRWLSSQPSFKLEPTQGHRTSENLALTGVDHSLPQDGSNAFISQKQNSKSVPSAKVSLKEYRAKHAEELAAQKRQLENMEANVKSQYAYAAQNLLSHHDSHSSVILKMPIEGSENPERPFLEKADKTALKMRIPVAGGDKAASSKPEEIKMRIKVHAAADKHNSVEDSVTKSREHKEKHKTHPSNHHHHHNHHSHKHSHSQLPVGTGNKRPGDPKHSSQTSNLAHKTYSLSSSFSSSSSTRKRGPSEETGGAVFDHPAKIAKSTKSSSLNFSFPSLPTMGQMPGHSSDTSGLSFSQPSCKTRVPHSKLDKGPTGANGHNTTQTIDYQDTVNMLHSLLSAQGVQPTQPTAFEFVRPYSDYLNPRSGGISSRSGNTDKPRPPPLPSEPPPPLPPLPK
- protocol description: CDK 9 assay (CTD peptide substrate)
- Format: biochemical
- test parameters: read-out: Kinase Inhibition pIC50 CDK9-cyclin T1 (converted)
endpoint name: log10(IC50) (log10 of the value in nM)

compound_structure_string=CCNc1nc(C)c(-c2ccnc(Nc3cccc(CNS(C)(=O)=O)c3)n2)s1 subject_of_test="CDK9/cyclin T1 (Homo sapiens)" endpoint_value=1.10
compound_structure_string=COc1cc(Nc2nccc(-c3sc(N)nc3C)n2)ccc1N1CCOCC1 subject_of_test="CDK9/cyclin T1 (Homo sapiens)" endpoint_value=3.00
compound_structure_string=CC(=O)N1CCN(c2ccc(Nc3nccc(-c4sc(N)nc4C)n3)cc2)CC1 subject_of_test="CDK9/cyclin T1 (Homo sapiens)" endpoint_value=4.00
compound_structure_string=Cc1nc(N)sc1-c1ccnc(Nc2cccc(S(=O)(=O)NCCO)c2)n1 subject_of_test="CDK9/cyclin T1 (Homo sapiens)" endpoint_value=1.40
compound_structure_string=CCNc1nc(C)c(-c2ccnc(Nc3cccc(S(=O)(=O)NC)c3)n2)s1 subject_of_test="CDK9/cyclin T1 (Homo sapiens)" endpoint_value=1.60
compound_structure_string=Cc1nc(C)c(-c2ccnc(Nc3ccc(CN4CCOCC4)cc3)n2)s1 subject_of_test="CDK9/cyclin T1 (Homo sapiens)" endpoint_value=3.00
compound_structure_string=CCNc1nc(C)c(-c2ccnc(Nc3cccc(S(N)(=O)=O)c3)n2)s1 subject_of_test="CDK9/cyclin T1 (Homo sapiens)" endpoint_value=1.20
compound_structure_string=CCNc1nc(C)c(-c2ccnc(Nc3cccc(S(=O)(=O)NC(C)C)c3)n2)s1 subject_of_test="CDK9/cyclin T1 (Homo sapiens)" endpoint_value=2.00
compound_structure_string=Cc1ccc(Nc2nccc(-c3sc(N)nc3C)n2)cc1S(=O)(=O)N1CCOCC1 subject_of_test="CDK9/cyclin T1 (Homo sapiens)" endpoint_value=1.40
compound_structure_string=CCNc1nc(C)c(-c2ccnc(Nc3cccc(S(=O)(=O)NCc4ccccc4)c3)n2)s1 subject_of_test="CDK9/cyclin T1 (Homo sapiens)" endpoint_value=2.40
compound_structure_string=Cc1nc(C)c(-c2ccnc(Nc3cccc(S(=O)(=O)NCCO)c3)n2)s1 subject_of_test="CDK9/cyclin T1 (Homo sapiens)" endpoint_value=2.20
compound_structure_string=CCNc1nc(C)c(-c2ccnc(Nc3cccc(CC(=O)OCCOC)c3)n2)s1 subject_of_test="CDK9/cyclin T1 (Homo sapiens)" endpoint_value=2.60
compound_structure_string=Cc1nc(C)c(-c2ccnc(Nc3cccc(CNS(=O)(=O)C(F)(F)F)c3)n2)s1 subject_of_test="CDK9/cyclin T1 (Homo sapiens)" endpoint_value=3.10
compound_structure_string=CC(=O)NCc1ccc(Nc2nccc(-c3sc(-c4cccnc4)nc3C)n2)cc1 subject_of_test="CDK9/cyclin T1 (Homo sapiens)" endpoint_value=3.70
compound_structure_string=CCNc1nc(C)c(-c2ccnc(Nc3ccc(S(=O)(=O)NCc4ccccc4)cc3)n2)s1 subject_of_test="CDK9/cyclin T1 (Homo sapiens)" endpoint_value=2.60
compound_structure_string=Cc1nc(N)sc1-c1ccnc(Nc2ccc(S(=O)(=O)NCCO)cc2)n1 subject_of_test="CDK9/cyclin T1 (Homo sapiens)" endpoint_value=2.30
compound_structure_string=CNc1nc(C)c(-c2ccnc(Nc3cccc(S(=O)(=O)NCCOC)c3)n2)s1 subject_of_test="CDK9/cyclin T1 (Homo sapiens)" endpoint_value=1.60
compound_structure_string=CCNc1nc(C)c(-c2ccnc(Nc3ccc(S(N)(=O)=O)cc3)n2)s1 subject_of_test="CDK9/cyclin T1 (Homo sapiens)" endpoint_value=1.00
compound_structure_string=CNc1nc(C)c(-c2ccnc(Nc3ccc(S(=O)(=O)NCCOC)cc3)n2)s1 subject_of_test="CDK9/cyclin T1 (Homo sapiens)" endpoint_value=2.20
compound_structure_string=CC(=O)NS(=O)(=O)c1cccc(Nc2nccc(-c3sc(N)nc3C)n2)c1 subject_of_test="CDK9/cyclin T1 (Homo sapiens)" endpoint_value=2.40
compound_structure_string=COc1cc(Nc2nccc(-c3sc(C)nc3C)n2)ccc1N1CCOCC1 subject_of_test="CDK9/cyclin T1 (Homo sapiens)" endpoint_value=3.50
compound_structure_string=COCCNc1nc(C)c(-c2ccnc(Nc3cccc(S(N)(=O)=O)c3)n2)s1 subject_of_test="CDK9/cyclin T1 (Homo sapiens)" endpoint_value=1.20
compound_structure_string=COc1cc(Nc2nccc(-c3sc(C)nc3C)n2)cc(OC)c1 subject_of_test="CDK9/cyclin T1 (Homo sapiens)" endpoint_value=3.20
compound_structure_string=Cc1nc(C)c(-c2ccnc(Nc3cccc(CNC(=O)c4ccccc4)c3)n2)s1 subject_of_test="CDK9/cyclin T1 (Homo sapiens)" endpoint_value=2.70
compound_structure_string=Cc1nc(C)c(-c2ccnc(Nc3ccc(N4CCN(Cc5ccccc5)CC4)cc3)n2)s1 subject_of_test="CDK9/cyclin T1 (Homo sapiens)" endpoint_value=3.20
compound_structure_string=Cc1nc(CO)sc1-c1ccnc(Nc2ccc(N3CCCCC3)cc2)n1 subject_of_test="CDK9/cyclin T1 (Homo sapiens)" endpoint_value=3.50
compound_structure_string=CC(=O)N1CCN(c2ccc(Nc3nccc(-c4sc(NCCc5ccccc5)nc4C)n3)cc2)CC1 subject_of_test="CDK9/cyclin T1 (Homo sapiens)" endpoint_value=2.80
compound_structure_string=CCNS(=O)(=O)c1cccc(Nc2nccc(-c3sc(NC)nc3C)n2)c1 subject_of_test="CDK9/cyclin T1 (Homo sapiens)" endpoint_value=1.30
compound_structure_string=Cc1nc(N)sc1-c1ccnc(Nc2ccc(S(=O)(=O)NCc3ccccc3)cc2)n1 subject_of_test="CDK9/cyclin T1 (Homo sapiens)" endpoint_value=2.20
compound_structure_string=CNc1nc(C)c(-c2ccnc(Nc3cccc(S(C)(=O)=O)c3)n2)s1 subject_of_test="CDK9/cyclin T1 (Homo sapiens)" endpoint_value=0.00
compound_structure_string=CCNc1nc(C)c(-c2ccnc(Nc3cccc(S(C)(=O)=O)c3)n2)s1 subject_of_test="CDK9/cyclin T1 (Homo sapiens)" endpoint_value=0.50
compound_structure_string=CC(=O)N1CCN(c2cccc(Nc3nccc(-c4sc(C)nc4C)n3)c2)CC1 subject_of_test="CDK9/cyclin T1 (Homo sapiens)" endpoint_value=3.00
compound_structure_string=Cc1nc(C)c(-c2ccnc(Nc3ccc(C)c(S(=O)(=O)N4CCOCC4)c3)n2)s1 subject_of_test="CDK9/cyclin T1 (Homo sapiens)" endpoint_value=2.60
compound_structure_string=CNc1nc(C)c(-c2ccnc(Nc3cccc(S(=O)(=O)NCCO)c3)n2)s1 subject_of_test="CDK9/cyclin T1 (Homo sapiens)" endpoint_value=1.80
compound_structure_string=CNc1nc(C)c(-c2ccnc(Nc3cccc(CC(=O)OCCOC)c3)n2)s1 subject_of_test="CDK9/cyclin T1 (Homo sapiens)" endpoint_value=2.40
